As a worked illustration, we turn to pEC50 data collected for Metabotropic glutamate receptor 2 (Homo sapiens, UniProt Q14416).
pEC50: −log10 of the molar value.

Would you please look over these solved cases?
1) O=C1CCOc2cc(OCc3ccccc3)ccc21 < 5.00
2) O=C1CCCc2nc(C#Cc3ccccc3)sc21 < 5.00

Please turn your attention to the following entry.
Reported pEC50 for O=C1CCOc2cc(COc3ccccc3)ccc21 was < 5.00

---

- SYSTEM: Metabotropic glutamate receptor 5 (Homo sapiens)
pEC50: −log10 of the molar value.
Note to self: values exactly at 6 are MET. So pEC50 at or above 6 is MET, below is NOT MET.

Some solved cases for reference:
1) CN1CCc2nc(OCc3ccccc3)sc2C1=O NOT MET
2) COCCN1CCc2nc(C#Cc3ccccc3)sc2C1=O MET
3) O=C1c2sc(COc3cccc(F)c3)nc2CCN1c1ccc(F)cc1 MET
4) O=C1c2sc(COc3ccccc3)nc2CCN1c1ccc(F)cc1 MET
5) COCCN1CCc2nc(COc3ccccc3)sc2C1=O NOT MET
6) CN1CCc2nc(C#Cc3ccccc3)sc2C1=O MET

Query :: Please indicate if the recorded pEC50 for O=C1CCc2cc(O)ccc2O1 meets or exceeds 6.
Result :: NOT MET

Query :: Please indicate if the recorded pEC50 for O=C1c2sc(COc3ccccc3)nc2CCN1c1cccnc1 meets or exceeds 6.
Result :: NOT MET

Query :: Please indicate if the recorded pEC50 for O=C1c2sc(COc3ccccc3)nc2CCN1CC1CC1 meets or exceeds 6.
Result :: MET

Query :: Please indicate if the recorded pEC50 for O=C(c1ccc(F)cc1)N1CCC[C@H](c2nc(-c3ccc(F)cc3)no2)C1 meets or exceeds 6.
Result :: MET

Query :: Please indicate if the recorded pEC50 for O=C1NCCc2nc(C#Cc3ccccc3)sc21 meets or exceeds 6.
Result :: MET

Query :: Please indicate if the recorded pEC50 for O=C1c2sc(COc3ccccc3F)nc2CCN1c1ccc(F)cc1 meets or exceeds 6.
Result :: MET

---

- SYSTEM: Metabotropic glutamate receptor 5 (Homo sapiens, UniProt P41594)
- Sequence (P41594 whole entry): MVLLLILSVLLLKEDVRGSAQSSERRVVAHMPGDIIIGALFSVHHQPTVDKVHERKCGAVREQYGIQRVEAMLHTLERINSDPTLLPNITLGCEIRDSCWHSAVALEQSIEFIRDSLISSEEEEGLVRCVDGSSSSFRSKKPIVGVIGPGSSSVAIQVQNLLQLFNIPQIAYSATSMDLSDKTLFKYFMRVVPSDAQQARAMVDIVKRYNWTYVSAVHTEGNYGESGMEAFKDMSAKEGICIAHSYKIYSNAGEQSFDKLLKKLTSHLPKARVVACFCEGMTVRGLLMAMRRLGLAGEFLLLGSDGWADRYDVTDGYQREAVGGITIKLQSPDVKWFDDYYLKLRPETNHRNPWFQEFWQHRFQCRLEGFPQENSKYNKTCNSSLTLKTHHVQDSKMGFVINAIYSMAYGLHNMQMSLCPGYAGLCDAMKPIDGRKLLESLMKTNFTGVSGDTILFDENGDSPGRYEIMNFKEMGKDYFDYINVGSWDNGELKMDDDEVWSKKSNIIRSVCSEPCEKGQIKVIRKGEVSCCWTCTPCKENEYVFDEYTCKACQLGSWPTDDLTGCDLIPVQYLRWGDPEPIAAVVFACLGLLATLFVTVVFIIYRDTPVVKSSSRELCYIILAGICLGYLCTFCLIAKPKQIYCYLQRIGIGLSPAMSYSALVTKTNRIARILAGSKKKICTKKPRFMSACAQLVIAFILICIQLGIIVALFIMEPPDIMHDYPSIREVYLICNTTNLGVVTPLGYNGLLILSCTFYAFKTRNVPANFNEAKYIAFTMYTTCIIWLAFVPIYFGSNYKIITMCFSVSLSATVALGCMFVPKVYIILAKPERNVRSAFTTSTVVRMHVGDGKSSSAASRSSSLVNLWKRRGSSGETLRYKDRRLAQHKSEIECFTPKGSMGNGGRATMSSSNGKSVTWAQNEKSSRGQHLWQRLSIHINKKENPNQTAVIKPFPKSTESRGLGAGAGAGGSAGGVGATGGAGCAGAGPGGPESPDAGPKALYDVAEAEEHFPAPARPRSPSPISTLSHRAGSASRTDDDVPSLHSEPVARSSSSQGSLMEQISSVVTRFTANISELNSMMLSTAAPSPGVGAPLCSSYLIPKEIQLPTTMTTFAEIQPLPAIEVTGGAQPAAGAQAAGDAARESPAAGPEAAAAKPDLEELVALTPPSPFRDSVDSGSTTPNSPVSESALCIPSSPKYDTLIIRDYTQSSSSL
MEASURE_NAME: EC50

Would you please look over these solved cases?
1) O=C(O)c1ccccc1 > 10 µM
2) O=C1CCCc2nc(C#Cc3ccccc3)sc21 0.033 µM
3) O=C1c2sc(COc3ccccc3)nc2CCN1c1ccc(F)cc1F 0.066 µM
4) O=C1c2sc(COc3ccccc3)nc2CCN1c1ccccn1 1.02 µM
5) O=C1c2sc(COc3ccc(F)cc3)nc2CCN1c1ccc(F)cc1 0.739 µM

Please turn your attention to the following entry.
Result for O=C1c2sc(COc3ccccc3)nc2CCN1c1ccc(F)cn1 , tested on Metabotropic glutamate receptor 5 (Homo sapiens, UniProt P41594), EC50: 0.621 µM

---

Measured pEC50 accompanies every entry in the list below.
- SYSTEM: Metabotropic glutamate receptor 8 (Homo sapiens, UniProt O00222)
- Sequence (O00222 whole entry): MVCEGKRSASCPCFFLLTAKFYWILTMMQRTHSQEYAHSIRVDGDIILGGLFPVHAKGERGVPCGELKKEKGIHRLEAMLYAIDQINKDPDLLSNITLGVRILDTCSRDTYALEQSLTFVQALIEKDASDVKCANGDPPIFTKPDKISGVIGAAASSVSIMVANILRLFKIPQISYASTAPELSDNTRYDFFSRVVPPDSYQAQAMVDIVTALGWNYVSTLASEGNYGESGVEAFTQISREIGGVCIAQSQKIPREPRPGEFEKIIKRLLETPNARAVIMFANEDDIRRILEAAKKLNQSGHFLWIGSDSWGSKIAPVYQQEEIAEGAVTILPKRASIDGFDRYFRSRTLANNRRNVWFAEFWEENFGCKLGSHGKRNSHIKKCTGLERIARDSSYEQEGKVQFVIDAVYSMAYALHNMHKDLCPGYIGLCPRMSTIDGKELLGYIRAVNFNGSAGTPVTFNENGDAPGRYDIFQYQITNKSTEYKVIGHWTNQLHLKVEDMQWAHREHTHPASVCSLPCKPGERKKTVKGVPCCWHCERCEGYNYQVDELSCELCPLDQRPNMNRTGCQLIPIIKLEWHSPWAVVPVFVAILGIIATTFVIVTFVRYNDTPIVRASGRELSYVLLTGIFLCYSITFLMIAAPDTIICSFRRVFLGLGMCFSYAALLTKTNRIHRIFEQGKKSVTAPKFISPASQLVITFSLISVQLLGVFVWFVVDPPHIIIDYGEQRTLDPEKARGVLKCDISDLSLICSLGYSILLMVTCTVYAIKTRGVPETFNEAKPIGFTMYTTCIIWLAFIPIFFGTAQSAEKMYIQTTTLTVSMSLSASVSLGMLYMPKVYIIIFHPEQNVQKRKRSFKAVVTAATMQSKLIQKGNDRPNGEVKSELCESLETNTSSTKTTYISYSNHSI
pEC50: −log10 of the molar value.

Would you please look over these solved cases?
1. O=C1CCOc2cc(COc3ccccc3)ccc21 < 5.00
2. O=C1CCCc2nc(C#Cc3ccccc3)sc21 < 5.00

Please turn your attention to the following entry.
Result for O=C1CCOc2cc(OCc3ccccc3)ccc21 , tested on Metabotropic glutamate receptor 8 (Homo sapiens, UniProt O00222), pEC50: < 5.00

---

As a worked illustration, we turn to pEC50 data collected for Metabotropic glutamate receptor 1 (Homo sapiens, UniProt Q13255).
pEC50: −log10 of the molar value.

Would you please look over these solved cases?
1. O=C1CCOc2cc(COc3ccccc3)ccc21 < 5.00
2. O=C1CCOc2cc(OCc3ccccc3)ccc21 < 5.00

Result for O=C1CCCc2nc(C#Cc3ccccc3)sc21 , tested on Metabotropic glutamate receptor 1 (Homo sapiens, UniProt Q13255), pEC50: < 5.00

---

Measured EC50 accompanies every entry in the list below.
- SYSTEM: Metabotropic glutamate receptor 7 (Homo sapiens)
- Sequence (Q14831 whole entry): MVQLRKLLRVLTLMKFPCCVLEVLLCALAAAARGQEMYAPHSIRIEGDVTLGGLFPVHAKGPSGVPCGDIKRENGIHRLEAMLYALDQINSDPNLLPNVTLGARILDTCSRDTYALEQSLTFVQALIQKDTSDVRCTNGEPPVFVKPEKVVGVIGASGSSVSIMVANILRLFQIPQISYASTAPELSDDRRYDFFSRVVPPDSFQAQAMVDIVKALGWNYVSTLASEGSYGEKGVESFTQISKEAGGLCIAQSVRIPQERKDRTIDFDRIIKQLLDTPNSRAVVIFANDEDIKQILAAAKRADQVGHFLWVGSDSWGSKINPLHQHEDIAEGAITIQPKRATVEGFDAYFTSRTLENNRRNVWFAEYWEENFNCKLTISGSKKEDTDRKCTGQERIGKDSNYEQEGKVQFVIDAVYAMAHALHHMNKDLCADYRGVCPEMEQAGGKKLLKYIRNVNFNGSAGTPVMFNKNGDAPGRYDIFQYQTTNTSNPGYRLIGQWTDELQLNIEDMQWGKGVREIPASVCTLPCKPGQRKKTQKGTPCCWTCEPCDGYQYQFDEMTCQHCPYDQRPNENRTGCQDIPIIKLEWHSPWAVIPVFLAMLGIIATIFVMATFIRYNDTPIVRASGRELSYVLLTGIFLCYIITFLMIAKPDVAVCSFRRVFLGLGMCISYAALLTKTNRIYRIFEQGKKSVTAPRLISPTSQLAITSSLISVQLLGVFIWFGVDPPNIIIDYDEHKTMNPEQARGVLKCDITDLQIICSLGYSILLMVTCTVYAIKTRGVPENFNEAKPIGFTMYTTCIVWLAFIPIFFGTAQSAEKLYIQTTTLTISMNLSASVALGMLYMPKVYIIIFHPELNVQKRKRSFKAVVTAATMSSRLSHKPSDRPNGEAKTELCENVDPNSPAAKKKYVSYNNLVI

Would you please look over these solved cases?
1) O=C1CCOc2cc(OCc3ccccc3)ccc21 > 10 µM
2) O=C1CCOc2cc(COc3ccccc3)ccc21 > 10 µM

Result for O=C1CCCc2nc(C#Cc3ccccc3)sc21 , tested on Metabotropic glutamate receptor 7 (Homo sapiens), EC50: > 10 µM

---

- SYSTEM: Metabotropic glutamate receptor 5 (Homo sapiens)
MEASURE_NAME: pEC50
On this scale, pEC50 is minus log10 of a concentration expressed in M (mol/L).

1. CC(C)N1CCc2nc(COc3ccccc3)sc2C1=O 5.92
2. O=C1c2sc(OCc3ccccc3)nc2CCN1c1ccc(F)cc1 5.95
3. O=C1c2sc(COc3ccccc3)nc2CCN1C1CC1 5.84
4. O=C1c2sc(COc3ccccc3)nc2CCN1CC1CCOCC1 6.07

Please turn your attention to the following entry.
Reported pEC50 for O=C1c2sc(COc3ccccc3)nc2CCN1c1ncccc1F was 6.10

The measured values listed here are drawn from ChEMBL document CHEMBL2424640.
